Collected pIC50 values appear next to each entry.
- assay_target: Monoglyceride lipase (Homo sapiens)
- Sequence (Q99685 whole entry): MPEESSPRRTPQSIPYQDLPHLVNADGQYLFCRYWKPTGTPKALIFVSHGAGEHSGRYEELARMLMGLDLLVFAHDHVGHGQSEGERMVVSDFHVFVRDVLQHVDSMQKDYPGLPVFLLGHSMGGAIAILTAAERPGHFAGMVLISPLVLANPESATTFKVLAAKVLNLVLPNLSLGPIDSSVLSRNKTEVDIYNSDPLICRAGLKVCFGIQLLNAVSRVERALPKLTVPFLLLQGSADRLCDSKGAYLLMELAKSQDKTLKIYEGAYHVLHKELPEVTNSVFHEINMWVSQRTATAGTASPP
- assay_text: Inhibition of human recombinant MAGL-mediated 1,3-dihydroxypropan-1-yl 4-pyren-1-ylbutanoate conversion to 4-pyren-1-ylbutanoic acid preincubated for 15 mins measured after 45 mins by HPLC analysis
pIC50: −log10 of the molar value.
observable: pIC50

1. CN(C)C(=O)n1nnc(Cc2ccc(-c3ccccc3)cc2)n1 ... 8.22
2. CN(C)C(=O)n1nnnc1Cc1ccc(-c2ccccc2)cc1 ... 6.54
3. COc1nn(-c2ccc(Oc3ccccc3)cc2)c(=O)o1 ... 6.51
4. COc1nn(-c2ccc(NC(=O)OCc3ccccc3)c(C)c2)c(=O)o1 ... 6.32

---

- assay_target: Monoglyceride lipase (Homo sapiens, UniProt Q99685)
- Sequence (Q99685 whole entry): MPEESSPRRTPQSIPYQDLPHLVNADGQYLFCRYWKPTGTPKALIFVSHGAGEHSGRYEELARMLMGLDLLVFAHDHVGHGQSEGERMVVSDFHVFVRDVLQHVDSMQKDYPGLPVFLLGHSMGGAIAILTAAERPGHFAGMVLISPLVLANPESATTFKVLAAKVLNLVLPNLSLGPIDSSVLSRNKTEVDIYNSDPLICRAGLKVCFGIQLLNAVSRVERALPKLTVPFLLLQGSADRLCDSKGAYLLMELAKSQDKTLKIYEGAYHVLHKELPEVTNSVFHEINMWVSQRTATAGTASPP
- assay_text: Inhibition of MAGL (unknown origin)
pIC50: −log10 of the molar value.
observable: pIC50

1) COc1nn(-c2ccc(Oc3ccccc3)cc2)c(=O)o1 ... 7.11
2) COc1nn(-c2ccc(NC(=O)OCc3ccccc3)c(C)c2)c(=O)o1 ... 7.04

---

- assay_target: Fatty-acid amide hydrolase 1 (Rattus norvegicus, UniProt P97612)
- Sequence (P97612 whole entry): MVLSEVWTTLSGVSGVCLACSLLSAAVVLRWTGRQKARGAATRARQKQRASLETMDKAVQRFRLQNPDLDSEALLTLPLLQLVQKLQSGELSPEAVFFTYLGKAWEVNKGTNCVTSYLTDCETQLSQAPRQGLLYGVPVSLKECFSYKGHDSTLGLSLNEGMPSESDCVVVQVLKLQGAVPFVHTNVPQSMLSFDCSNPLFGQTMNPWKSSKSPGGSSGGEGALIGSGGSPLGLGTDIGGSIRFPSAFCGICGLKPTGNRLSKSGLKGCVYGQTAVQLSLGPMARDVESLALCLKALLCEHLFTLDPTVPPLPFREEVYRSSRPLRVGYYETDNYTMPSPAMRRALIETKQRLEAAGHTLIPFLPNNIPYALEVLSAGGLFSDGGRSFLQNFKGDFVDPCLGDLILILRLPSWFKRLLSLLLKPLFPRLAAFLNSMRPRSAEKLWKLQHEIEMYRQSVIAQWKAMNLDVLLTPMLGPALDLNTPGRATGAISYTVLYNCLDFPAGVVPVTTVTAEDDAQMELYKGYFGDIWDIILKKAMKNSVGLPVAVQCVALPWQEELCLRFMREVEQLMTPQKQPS
- assay_text: Inhibition of FAAH in Sprague-Dawley rat brain microsomes assessed as N-(2-hydroxyethyl)-4-pyren-1-ylbutanamide conversion to 4-pyren-1-ylbutanoic acid preincubated for 10 mins measured after 45 mins by HPLC analysis
pIC50: −log10 of the molar value.
observable: pIC50

1. COc1cccc(Oc2ccc(-c3nnn(C(=O)N(C)C)n3)cc2)c1 ... 7.82
2. O=C1C=CC(=O)N1c1ccc(Oc2ccccc2)cc1 ... 5.28
3. O=C1C=CC(=O)N1Cc1ccc(Oc2ccccc2)cc1 ... 5.31
4. Cc1cc(C(=O)c2ccccc2)c(C)n1-c1ccc(-c2nnn(C(=O)N(C)C)n2)cc1 ... 7.80
5. Cc1ccc(Oc2ccc(-c3nnn(C(=O)N(C)C)n3)cc2)cc1 ... 7.62
6. CN(C)C(=O)n1nnc(-c2ccc(Oc3cccc(F)c3)cc2)n1 ... 8.00
7. CN(C)C(=O)n1nnc(-c2ccc(Cn3cccc3)cc2)n1 ... 7.96

---

- assay_target: Monoglyceride lipase (Homo sapiens, UniProt Q99685)
- assay_text: Inhibition of human MAGL expressed in Escherichia coli using 6-methoxy-4-methylcoumarin ester as substrate after 3 hrs by mass spectroscopic analysis
observable: IC50 (nM)

1) CCCCC/C=C\C/C=C\C/C=C\C/C=C\CCCCN1C(=O)C=CC1=O ... 2800

---

- assay_text: Metabolic stability in Wistar rat liver S9 fraction at 20 uM after 30 mins by HPLC analysis
- Format: ADME, subcellular
- condition_context: read-out: Stability
observable: remaining at 0.5 h, 20 µM

1. CN(C)C(=O)n1nnc(-c2ccc(Oc3ccccc3)cc2)n1 ... 0%
2. CCN(CC)C(=O)n1nnc(-c2ccc(Oc3ccccc3)cc2)n1 ... 0%
3. CC(C)N(C(=O)n1nnc(-c2ccc(Oc3ccccc3)cc2)n1)C(C)C ... 27%

These entries and their values trace back to ChEMBL document CHEMBL2375343.
